Give measured Lung for each item. Keep answers brief.
Tested on: S180 tumor
Assay: Biodistribution in tumor-bearing mice
Type: in vivo
Conditions: 120 min, i.v., mice bearing S180 tumor, mean ± SD
Method: The mice bearing S180 tumors were injected intravenously via the tail vein respectively with the solutions (0.1 mL, 370 kBq) containing the radioactive drugs of Examples 1-4. […] After dissection, the heart, liver, lung, kidney, spleen, bone, muscle, small intestine, blood and tumors were harvested, and measured for radioactivity with the γ-counter. The biodistribution individual organs or tissues was expressed as the percentage of the injected dose per gram of organ or tissue (% ID/g).
State the value with its unit after it.

Query: // fetch Lung given entry O=C(NC1C(O)OC(CO)C(O)C1O)c1ccc(C[N+]#[C][99Tc+]([C]#[N+]Cc2ccc(C(=O)NC3C(O)OC(CO)C(O)C3O)cc2)([C]#[N+]Cc2ccc(C(=O)NC3C(O)OC(CO)C(O)C3O)cc2)([C]#[N+]Cc2ccc(C(=O)NC3C(O)OC(CO)C(O)C3O)cc2)([C]#[N+]Cc2ccc(C(=O)NC3C(O)OC(CO)C(O)C3O)cc2)[C]#[N+]Cc2ccc(C(=O)NC3C(O)OC(CO)C(O)C3O)cc2)cc1 (stereo not shown) [^99mTc-CNPEDG, reference compound]
Result: 2.39 ± 0.31 % ID/g

Query: // fetch Lung given entry O=C(NC1C(O)OC(CO)C(O)C1O)c1cccc(C[N+]#[C][99Tc+]([C]#[N+]Cc2cccc(C(=O)NC3C(O)OC(CO)C(O)C3O)c2)([C]#[N+]Cc2cccc(C(=O)NC3C(O)OC(CO)C(O)C3O)c2)([C]#[N+]Cc2cccc(C(=O)NC3C(O)OC(CO)C(O)C3O)c2)([C]#[N+]Cc2cccc(C(=O)NC3C(O)OC(CO)C(O)C3O)c2)[C]#[N+]Cc2cccc(C(=O)NC3C(O)OC(CO)C(O)C3O)c2)c1 (stereo not shown) [^99mTc-3-CNPEDG]
Result: 0.42 ± 0.09 % ID/g

Query: // fetch Lung given entry O=C(NC1C(O)OC(CO)C(O)C1O)c1cccc([N+]#[C][99Tc+]([C]#[N+]c2cccc(C(=O)NC3C(O)OC(CO)C(O)C3O)c2)([C]#[N+]c2cccc(C(=O)NC3C(O)OC(CO)C(O)C3O)c2)([C]#[N+]c2cccc(C(=O)NC3C(O)OC(CO)C(O)C3O)c2)([C]#[N+]c2cccc(C(=O)NC3C(O)OC(CO)C(O)C3O)c2)[C]#[N+]c2cccc(C(=O)NC3C(O)OC(CO)C(O)C3O)c2)c1 (stereo not shown) [^99mTc-3-CNBzDG]
Result: 0.76 ± 0.20 % ID/g

Query: // fetch Lung given entry O=C(Cc1ccc(C[N+]#[C][99Tc+]([C]#[N+]Cc2ccc(CC(=O)NC3C(O)OC(CO)C(O)C3O)cc2)([C]#[N+]Cc2ccc(CC(=O)NC3C(O)OC(CO)C(O)C3O)cc2)([C]#[N+]Cc2ccc(CC(=O)NC3C(O)OC(CO)C(O)C3O)cc2)([C]#[N+]Cc2ccc(CC(=O)NC3C(O)OC(CO)C(O)C3O)cc2)[C]#[N+]Cc2ccc(CC(=O)NC3C(O)OC(CO)C(O)C3O)cc2)cc1)NC1C(O)OC(CO)C(O)C1O (stereo not shown) [^99mTc-4-CNMBDG]
Result: 1.31 ± 0.44 % ID/g

---

Test system: S180 tumor
Test: Biodistribution in tumor-bearing mice
Format: in vivo
Conditions: 120 min, i.v., mice bearing S180 tumor, mean ± SD
Decision: Kidney beneath 7 % ID/g gives y; Kidney meeting or exceeding 7 % ID/g gives n.

Query: API: query returns whether the compound falls strictly under 7 % ID/g in Kidney. Query: O=C(NC1C(O)OC(CO)C(O)C1O)c1ccc(C[N+]#[C][99Tc+]([C]#[N+]Cc2ccc(C(=O)NC3C(O)OC(CO)C(O)C3O)cc2)([C]#[N+]Cc2ccc(C(=O)NC3C(O)OC(CO)C(O)C3O)cc2)([C]#[N+]Cc2ccc(C(=O)NC3C(O)OC(CO)C(O)C3O)cc2)([C]#[N+]Cc2ccc(C(=O)NC3C(O)OC(CO)C(O)C3O)cc2)[C]#[N+]Cc2ccc(C(=O)NC3C(O)OC(CO)C(O)C3O)cc2)cc1 (centres unmarked) [^99mTc-CNPEDG, reference compound]
Result: n

Query: API: query returns whether the compound falls strictly under 7 % ID/g in Kidney. Query: O=C(NC1C(O)OC(CO)C(O)C1O)c1cccc([N+]#[C][99Tc+]([C]#[N+]c2cccc(C(=O)NC3C(O)OC(CO)C(O)C3O)c2)([C]#[N+]c2cccc(C(=O)NC3C(O)OC(CO)C(O)C3O)c2)([C]#[N+]c2cccc(C(=O)NC3C(O)OC(CO)C(O)C3O)c2)([C]#[N+]c2cccc(C(=O)NC3C(O)OC(CO)C(O)C3O)c2)[C]#[N+]c2cccc(C(=O)NC3C(O)OC(CO)C(O)C3O)c2)c1 (centres unmarked) [^99mTc-3-CNBzDG]
Result: y

Query: API: query returns whether the compound falls strictly under 7 % ID/g in Kidney. Query: O=C(NC1C(O)OC(CO)C(O)C1O)c1cccc(C[N+]#[C][99Tc+]([C]#[N+]Cc2cccc(C(=O)NC3C(O)OC(CO)C(O)C3O)c2)([C]#[N+]Cc2cccc(C(=O)NC3C(O)OC(CO)C(O)C3O)c2)([C]#[N+]Cc2cccc(C(=O)NC3C(O)OC(CO)C(O)C3O)c2)([C]#[N+]Cc2cccc(C(=O)NC3C(O)OC(CO)C(O)C3O)c2)[C]#[N+]Cc2cccc(C(=O)NC3C(O)OC(CO)C(O)C3O)c2)c1 (centres unmarked) [^99mTc-3-CNPEDG]
Result: y

Query: API: query returns whether the compound falls strictly under 7 % ID/g in Kidney. Query: O=C(Cc1ccc(C[N+]#[C][99Tc+]([C]#[N+]Cc2ccc(CC(=O)NC3C(O)OC(CO)C(O)C3O)cc2)([C]#[N+]Cc2ccc(CC(=O)NC3C(O)OC(CO)C(O)C3O)cc2)([C]#[N+]Cc2ccc(CC(=O)NC3C(O)OC(CO)C(O)C3O)cc2)([C]#[N+]Cc2ccc(CC(=O)NC3C(O)OC(CO)C(O)C3O)cc2)[C]#[N+]Cc2ccc(CC(=O)NC3C(O)OC(CO)C(O)C3O)cc2)cc1)NC1C(O)OC(CO)C(O)C1O (centres unmarked) [^99mTc-4-CNMBDG]
Result: n

Query: API: query returns whether the compound falls strictly under 7 % ID/g in Kidney. Query: O=C(NC1C(O)OC(CO)C(O)C1O)c1ccc(CC[N+]#[C][99Tc+]([C]#[N+]CCc2ccc(C(=O)NC3C(O)OC(CO)C(O)C3O)cc2)([C]#[N+]CCc2ccc(C(=O)NC3C(O)OC(CO)C(O)C3O)cc2)([C]#[N+]CCc2ccc(C(=O)NC3C(O)OC(CO)C(O)C3O)cc2)([C]#[N+]CCc2ccc(C(=O)NC3C(O)OC(CO)C(O)C3O)cc2)[C]#[N+]CCc2ccc(C(=O)NC3C(O)OC(CO)C(O)C3O)cc2)cc1 (centres unmarked) [^99mTc-4-CNPeDG]
Result: y

Source of measurements: patent US20230263914A1
